# TARGET_OR_TEST_SYSTEM: UniProt:P00760
# Sequence (P00760 24-246): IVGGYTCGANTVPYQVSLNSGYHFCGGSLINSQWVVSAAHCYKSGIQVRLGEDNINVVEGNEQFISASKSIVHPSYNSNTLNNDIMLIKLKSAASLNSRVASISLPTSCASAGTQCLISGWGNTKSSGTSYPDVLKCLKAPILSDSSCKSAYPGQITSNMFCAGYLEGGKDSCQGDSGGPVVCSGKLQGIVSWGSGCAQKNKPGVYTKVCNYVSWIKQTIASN
QUANTITY: IC50

Challenge: Output measured IC50 for this item: O=C(CCl)NN=c1[nH]c2ccccc2n(-c2ccccc2)c1=O
Response given: > 200 µM

----------
# TARGET_OR_TEST_SYSTEM: Cathepsin B (Bos taurus, UniProt P07688)
QUANTITY: IC50

Challenge: Lab note: Cathepsin B (Bos taurus, UniProt P07688) assay, enter IC50 for O=C(CCl)NN=c1[nH]c2ccccc2n(-c2ccccc2)c1=O [Example 5] here
Response given: > 200 µM

----------
Lab note: IC50 readings collected with Human Calpain I (Homo sapiens, UniProt P07384) for the following molecules.
Sequence (P07384 whole entry): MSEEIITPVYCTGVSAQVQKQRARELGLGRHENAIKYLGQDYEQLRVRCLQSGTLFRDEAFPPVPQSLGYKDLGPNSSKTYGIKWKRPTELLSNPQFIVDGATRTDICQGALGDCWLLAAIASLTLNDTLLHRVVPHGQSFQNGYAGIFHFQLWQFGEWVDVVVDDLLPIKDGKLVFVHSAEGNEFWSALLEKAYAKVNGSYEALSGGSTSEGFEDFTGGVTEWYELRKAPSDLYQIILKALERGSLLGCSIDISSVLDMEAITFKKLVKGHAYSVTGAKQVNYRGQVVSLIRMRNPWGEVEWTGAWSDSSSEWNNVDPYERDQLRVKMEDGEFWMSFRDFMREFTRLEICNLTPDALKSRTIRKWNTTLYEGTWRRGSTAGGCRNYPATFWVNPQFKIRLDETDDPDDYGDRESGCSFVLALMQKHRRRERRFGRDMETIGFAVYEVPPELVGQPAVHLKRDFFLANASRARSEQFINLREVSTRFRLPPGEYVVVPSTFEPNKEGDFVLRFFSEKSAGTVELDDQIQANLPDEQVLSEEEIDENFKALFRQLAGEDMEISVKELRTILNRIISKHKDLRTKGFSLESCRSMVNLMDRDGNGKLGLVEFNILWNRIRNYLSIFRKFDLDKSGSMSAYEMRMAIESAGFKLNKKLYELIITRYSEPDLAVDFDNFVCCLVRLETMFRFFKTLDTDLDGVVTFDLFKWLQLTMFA
Sequence (P04632 whole entry partner): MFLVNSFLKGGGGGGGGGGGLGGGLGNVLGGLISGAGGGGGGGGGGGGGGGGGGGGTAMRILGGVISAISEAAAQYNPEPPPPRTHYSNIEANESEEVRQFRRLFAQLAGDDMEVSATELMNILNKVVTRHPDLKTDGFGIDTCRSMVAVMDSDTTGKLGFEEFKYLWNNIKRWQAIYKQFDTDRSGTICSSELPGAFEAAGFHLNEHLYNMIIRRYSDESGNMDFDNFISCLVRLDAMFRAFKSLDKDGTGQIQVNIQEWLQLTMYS

{"STRUCTURE_SMILES": "O=C(CBr)NN=c1[nH]c2ccccc2n(-c2ccccc2)c1=O", "IC50": "697 nM"}

Challenge: Output measured IC50 for this item: O=C(CCl)NN=c1[nH]c2ccccc2n(-c2ccccc2)c1=O
Response given: 364 nM

Challenge: Output measured IC50 for this item: O=C(CCl)NN=c1[nH]c2ccccc2n(-c2ccc(Cl)cc2)c1=O
Response given: 486 nM

----------
# TARGET_OR_TEST_SYSTEM: Thermolysin (Bacillus thermoproteolyticus)
# Sequence (P00800 233-548): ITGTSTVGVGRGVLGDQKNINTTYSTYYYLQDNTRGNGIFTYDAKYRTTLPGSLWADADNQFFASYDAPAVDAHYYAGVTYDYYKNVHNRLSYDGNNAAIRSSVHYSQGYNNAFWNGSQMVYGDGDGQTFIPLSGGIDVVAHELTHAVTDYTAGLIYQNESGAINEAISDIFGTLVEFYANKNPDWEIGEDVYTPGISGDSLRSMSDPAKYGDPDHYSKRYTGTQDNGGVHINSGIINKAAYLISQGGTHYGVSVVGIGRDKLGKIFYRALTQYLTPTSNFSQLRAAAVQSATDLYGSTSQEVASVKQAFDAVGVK
pIC50: −log10 of the molar value.
QUANTITY: pIC50

Challenge: Output measured pIC50 for this item: O=C(CCl)NN=c1[nH]c2ccccc2n(-c2ccccc2)c1=O [Example 5]
Response given: < 3.30
